Recorded half-life at 22 μM for the following molecules
test details: Simulated Intestinal Fluid (SIF) Stability Assay
Format: in vitro ADME, porcine
assay conditions: pig, simulated intestinal fluid (SIF) with 1% porcine pancreatin, pH 6.5, Table 3-B; alone or in parentheses after >360; read-out: Stabilty SIF t1/2, in hr (converted)
Bridge positions count the residues as written; N and C are the ends. Square brackets hold non-standard residues; d marks the D form. Peptide text beside a SMILES is read from it. Phe(4-tBu) = CC(C)(C)c1ccc(C[C@H](N)C(=O)O)cc1; NMeR = CN[C@@H](CCCNC(=N)N)C(=O)O; β3hE = N[C@@H](CCC(=O)O)CC(=O)O; Pen = CC(C)(S)[C@H](N)C(=O)O
Provide the reading as a plain figure in h.

Record CC(=O)N[C@@H]1C(=O)N(C)[C@@H](CCCNC(=N)N)C(=O)N[C@@H](CO)C(=O)N[C@@H](CC(=O)O)C(=O)N[C@@H]([C@@H](C)O)C(=O)N[C@@H](CC(C)C)C(=O)N[C@H](C(=O)N[C@@H](Cc2ccc(C(C)(C)C)cc2)C(=O)N[C@@H](CCC(=O)O)CC(=O)N[C@H](CCCCN)C(N)=O)C(C)(C)SSC1(C)C [compound 153] (Ac-[Pen][NMeR]SDTL[Pen][Phe(4-tBu)][β3hE][dK]-NH2; disulfide 1-7) , field half-life at 22 μM: 13.6

In the following, a different molecule is considered.
Record CC(=O)N[C@@H]1C(=O)N(C)[C@@H](CCCNC(=N)N)C(=O)N[C@@H](CO)C(=O)N[C@@H](CC(=O)O)C(=O)N[C@@H]([C@@H](C)O)C(=O)N[C@@H](CC(C)C)C(=O)N[C@H](C(=O)N[C@@H](Cc2c[nH]c3ccccc23)C(=O)O)C(C)(C)SSC1(C)C [compound 127] (Ac-[Pen][NMeR]SDTL[Pen]W-OH; disulfide 1-7) , field half-life at 22 μM: 35
